Provide the recorded pIC50 for the entries that follow.
target: KRAS^G12C-SOS1 (Homo sapiens (Human), UniProt P01116, G12C); assay: HTRF KRAS G12C/SOS1 binding assay; settings: Table 5
Sequence (P01116-2 other isoform, or with tags, fused parts or gaps G12C): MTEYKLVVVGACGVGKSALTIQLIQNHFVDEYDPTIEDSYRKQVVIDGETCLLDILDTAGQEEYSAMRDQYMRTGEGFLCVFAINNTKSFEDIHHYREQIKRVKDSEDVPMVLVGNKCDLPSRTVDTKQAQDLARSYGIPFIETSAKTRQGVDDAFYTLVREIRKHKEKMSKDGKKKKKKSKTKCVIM
To interpret pIC50, take it as minus log10 of a concentration measured in moles per litre.

Notebook: `COc1ncc(-c2ccc3ncnc(N4CCC5(CC4)CN(C(=O)/C=C/C(C)=O)C5)c3c2)cc1NS(=O)(=O)c1sc(C)nc1C` , pIC50 read as 6.67

Notebook: `CNC(=O)/C=C/C(=O)N1CCN(c2ncnc3ccc(-c4cnc(OC)c(NS(=O)(=O)c5ccc(F)cc5F)c4)cc23)CC1` , pIC50 read as 6.83

Notebook: `COc1ncc(-c2ccc3ncnc(N4CC5CCC(C4)N5C(=O)/C=C/C(C)=O)c3c2)cc1NS(=O)(=O)c1ccc(F)cc1F` , pIC50 read as 6.56

====

Target: PI3Kα (Homo sapiens (Human))
Sequence (P42336 whole entry): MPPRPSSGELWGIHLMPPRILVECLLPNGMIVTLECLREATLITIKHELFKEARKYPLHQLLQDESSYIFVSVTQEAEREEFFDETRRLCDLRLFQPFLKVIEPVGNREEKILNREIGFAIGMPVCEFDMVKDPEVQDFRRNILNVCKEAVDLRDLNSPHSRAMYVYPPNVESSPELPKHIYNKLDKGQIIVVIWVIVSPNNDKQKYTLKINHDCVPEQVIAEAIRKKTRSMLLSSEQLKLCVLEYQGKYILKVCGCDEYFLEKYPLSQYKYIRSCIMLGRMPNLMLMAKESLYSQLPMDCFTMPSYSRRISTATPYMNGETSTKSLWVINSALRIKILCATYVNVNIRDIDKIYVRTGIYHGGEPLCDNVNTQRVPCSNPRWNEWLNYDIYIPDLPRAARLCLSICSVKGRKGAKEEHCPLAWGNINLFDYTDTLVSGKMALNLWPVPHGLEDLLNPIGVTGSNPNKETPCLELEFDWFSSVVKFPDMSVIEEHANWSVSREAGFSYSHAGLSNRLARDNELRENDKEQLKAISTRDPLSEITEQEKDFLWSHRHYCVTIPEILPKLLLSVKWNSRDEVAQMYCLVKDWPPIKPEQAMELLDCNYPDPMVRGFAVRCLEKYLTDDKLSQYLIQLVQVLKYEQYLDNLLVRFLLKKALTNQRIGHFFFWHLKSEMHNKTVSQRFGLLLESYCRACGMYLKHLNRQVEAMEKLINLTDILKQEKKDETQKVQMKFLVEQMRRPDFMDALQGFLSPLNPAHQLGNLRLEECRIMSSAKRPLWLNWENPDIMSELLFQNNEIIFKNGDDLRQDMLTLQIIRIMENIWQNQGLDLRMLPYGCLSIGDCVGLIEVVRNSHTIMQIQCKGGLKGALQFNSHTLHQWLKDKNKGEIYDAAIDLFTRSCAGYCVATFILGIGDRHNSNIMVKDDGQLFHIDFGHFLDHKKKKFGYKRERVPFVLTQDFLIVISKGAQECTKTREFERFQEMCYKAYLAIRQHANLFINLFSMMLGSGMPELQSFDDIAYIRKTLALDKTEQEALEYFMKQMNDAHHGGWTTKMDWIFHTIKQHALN
Sequence (P27986 whole entry partner): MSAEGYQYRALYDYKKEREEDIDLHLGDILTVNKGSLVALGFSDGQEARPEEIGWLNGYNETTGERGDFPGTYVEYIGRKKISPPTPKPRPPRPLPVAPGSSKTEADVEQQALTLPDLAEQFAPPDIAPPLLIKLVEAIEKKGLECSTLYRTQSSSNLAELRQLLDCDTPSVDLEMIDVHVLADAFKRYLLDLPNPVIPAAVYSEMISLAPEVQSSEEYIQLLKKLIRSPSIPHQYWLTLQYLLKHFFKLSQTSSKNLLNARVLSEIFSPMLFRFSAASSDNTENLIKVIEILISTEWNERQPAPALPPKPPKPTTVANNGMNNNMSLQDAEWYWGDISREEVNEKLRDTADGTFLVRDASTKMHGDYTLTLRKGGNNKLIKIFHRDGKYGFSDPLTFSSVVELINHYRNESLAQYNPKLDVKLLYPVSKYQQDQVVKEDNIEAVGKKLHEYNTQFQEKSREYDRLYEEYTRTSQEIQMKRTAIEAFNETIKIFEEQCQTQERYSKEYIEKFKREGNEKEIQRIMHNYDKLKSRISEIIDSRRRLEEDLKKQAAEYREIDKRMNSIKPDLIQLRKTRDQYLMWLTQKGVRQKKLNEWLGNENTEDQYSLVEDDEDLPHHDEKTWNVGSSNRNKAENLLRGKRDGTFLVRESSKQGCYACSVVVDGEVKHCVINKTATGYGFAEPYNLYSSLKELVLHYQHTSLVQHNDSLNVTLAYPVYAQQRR
Experiment: Inhibition of PI3Kα efficacy assay (ADP-Glo kinase assay)
Assay type: biochemical
Conditions: Table 2; read-out: PI3Kα inhibitory activity (IC50)
Protocol: Inhibition of PI3Kα Efficacy assay The ADP-Glo™ kinase assay was used to assess the inhibition of PI3Kα with our compounds. The utilized proteins and assay reagents were obtained from the ADP-Glo™ Kinase Assay Kit (Promega). […] Data were analyzed using GraphPad Prism with log(inhibitor) vs. response—Variable Slope(four parameters) fitting calculations for IC5 values. […]
Provide the recorded pIC50 for the entries that follow.
To interpret pIC50, take it as minus log10 of a concentration measured in moles per litre.

Record `COc1ncc(-c2ccc3ncnc(N4CCN(C(=O)/C=C/C(C)=O)CC4)c3c2)cc1NS(=O)(=O)c1ccc(F)cn1` ; system PI3Kα (Homo sapiens (Human)); pIC50 = 8.72

Record `C=CC(=O)N1CCN(c2ncnc3ccc(-c4cnc(OC)c(NS(=O)(=O)c5ccc(F)cc5F)c4)cc23)C[C@@H]1CC#N` ; system PI3Kα (Homo sapiens (Human)); pIC50 = 8.85

Record `COc1ncc(-c2ccc3ncnc(N4CCN(C(=O)C5=CC(=O)CCC5)CC4)c3c2)cc1NS(=O)(=O)c1ccc(F)cc1F` ; system PI3Kα (Homo sapiens (Human)); pIC50 = 8.23

Record `C=CC(=O)N1CCN(c2ncnc3ccc(-c4cnc(OC)c(NS(=O)(=O)c5c(F)cc(F)cc5F)c4)cc23)CC1` ; system PI3Kα (Homo sapiens (Human)); pIC50 = 9.27

Record `CC(=O)/C=C/C(=O)N1CCN(c2ncnc3ccc(-c4cnc(OC5CC5)c(NS(=O)(=O)c5ccc(F)cc5F)c4)cc23)CC1` ; system PI3Kα (Homo sapiens (Human)); pIC50 = 8.46

Record `CNc1ncc(-c2ccc3ncnc(N4CCN(C(=O)/C=C/C(C)=O)CC4)c3c2)cc1NS(=O)(=O)c1ccc(F)cc1F` ; system PI3Kα (Homo sapiens (Human)); pIC50 = 8.07

Record `C=C(C(=O)N1CCN(c2ncnc3ccc(-c4cnc(OC)c(NS(=O)(=O)c5ccc(F)cc5F)c4)cc23)CC1)C(C)C` ; system PI3Kα (Homo sapiens (Human)); pIC50 = 8.21

Record `COc1ncc(-c2ccc3ncnc(N4CCN(C(=O)/C=C/C(C)=O)CC4)c3c2)cc1NS(=O)(=O)c1ccc(C(F)(F)F)cc1F` ; system PI3Kα (Homo sapiens (Human)); pIC50 = 8.36

Record `COc1ncc(-c2ccc3ncnc(N4CCC5(CC=CC5=O)CC4)c3c2)cc1NS(=O)(=O)c1c(F)cccc1F` ; system PI3Kα (Homo sapiens (Human)); pIC50 = 8.68

Record `C=CC(=O)N1CC2(CCN(c3ncnc4ccc(-c5cnc(OC)c(NS(=O)(=O)c6c(F)cccc6F)c5)cc34)CC2)C1` ; system PI3Kα (Homo sapiens (Human)); pIC50 = 9.21

====

system: MIA PaCa-2 cells (KRAS G12C mutant); assay: MIA PaCa-2 cell anti-proliferation (CellTiter-Glo); assay type: cell-based; conditions: Homo sapiens, 72 h; MIA Paca-2 cells, 3 days, Table 7; read-out: MIA PaCa-2 (IC50)
endpoint.label: IC50 (nM)
Write the value in nM as a bare number.

Notebook: `C=C(C(C)=O)C(=O)N1CCN(c2ncnc3ccc(-c4cnc(OC)c(NS(=O)(=O)c5ccc(F)cc5F)c4)cc23)CC1` , IC50 read as 48.5

Notebook: `COc1ncc(-c2ccc3ncnc(N4CCN(C(=O)/C=C/C(F)(F)F)CC4)c3n2)cc1NS(=O)(=O)c1c(F)cccc1F` , IC50 read as 47.7

Notebook: `COc1ncc(-c2ccc3ncnc(N4CCN(C(=O)/C=C/C(C)=O)CC4)c3n2)cc1NS(=O)(=O)c1c(Cl)cncc1Cl` , IC50 read as 79.3

Notebook: `COc1ncc(-c2ccc3ncnc(N4CCC5(CC4)CN(C(=O)/C=C/C(C)=O)C5)c3c2)cc1NS(=O)(=O)c1sc(C)nc1C` , IC50 read as 43.1

Notebook: `COc1ncc(-c2ccc3ncnc(C4CCN(C(=O)/C=C/C(C)=O)CC4)c3c2)cc1NS(=O)(=O)c1ccccc1F` , IC50 read as 115

Notebook: `COc1ncc(-c2ccc3ncnc(N4CCN(C(=O)/C=C/C(C)=O)CC4)c3n2)cc1NS(=O)(=O)c1ccncc1F` , IC50 read as 58.5

Notebook: `CCOc1ncc(-c2ccc3ncnc(N4CCN(C(=O)/C=C/C(C)=O)CC4)c3c2)cc1NS(=O)(=O)c1ccc(F)cc1F` , IC50 read as 94.2

Notebook: `CCCC(=O)/C=C/C(=O)N1CCN(c2ncnc3ccc(-c4cnc(OC)c(NS(=O)(=O)c5ccc(F)cc5F)c4)cc23)CC1` , IC50 read as 87.9

Notebook: `COc1ncc(-c2ccc3ncnc(C4=CCN(C(=O)/C=C/C(C)=O)CC4)c3c2)cc1NS(=O)(=O)c1sc(C)nc1C` , IC50 read as 41.1

Notebook: `COc1ncc(-c2ccc3ncnc(N4CCN(C(=O)/C=C/CF)CC4)c3n2)cc1NS(=O)(=O)c1c(F)cccc1F` , IC50 read as 16.4

Notebook: `COc1ncc(-c2ccc3ncnc(C4=CCN(C(=O)/C=C/C(C)=O)CC4)c3n2)cc1NS(=O)(=O)c1ccc(F)cc1F` , IC50 read as 55.2

Notebook: `C=CC(=O)N1CCN(c2ncnc3ccc(-c4cnc(OC)c(NS(=O)(=O)c5c(F)cccc5F)c4)nc23)CC1` , IC50 read as 6.3

Notebook: `COc1ncc(-c2ccc3ncnc(N4CCN(C(=O)/C=C/C(C)=O)CC4)c3n2)cc1NS(=O)(=O)c1cnccc1C` , IC50 read as 94.4

Notebook: `CC(=O)/C=C/C(=O)N1CCN(c2ncnc3ccc(-c4cnc(C)c(NS(=O)(=O)c5ccc(F)cc5F)c4)cc23)CC1` , IC50 read as 865

Notebook: `C=CC(=O)N1CCC(Nc2ncnc3ccc(-c4cnc(Cl)c(NS(=O)(=O)c5ccc(F)cc5F)c4)nc23)CC1` , IC50 read as 485

Notebook: `C=CC(=O)N1CCN(c2ncnc3ccc(-c4cnc(OC)c(NS(=O)(=O)c5ccc(F)cc5F)c4)cc23)CC1` , IC50 read as 98

Notebook: `COc1ncc(-c2ccc3ncnc(N4CCC5(CC4)CN(C(=O)/C=C/C(C)=O)C5)c3c2)cc1NS(=O)(=O)c1ccccc1F` , IC50 read as 58.5

Notebook: `COc1ncc(-c2ccc3ncnc(N4CCN(C(=O)/C=C/C(C)=O)CC4)c3c2)cc1NS(=O)(=O)c1ccc(F)cc1F` , IC50 read as 17.1

Notebook: `COc1ncc(-c2ccc3ncnc(N4CCN(C(=O)/C=C/C(C)=O)C[C@@H]4C)c3c2)cc1NS(=O)(=O)c1ccc(F)cc1` , IC50 read as 56.7

Notebook: `COc1ncc(-c2ccc3ncnc(N4CCN(C(=O)/C=C/C(C)=O)CC4)c3c2)cc1NS(=O)(=O)c1ccncc1F` , IC50 read as 344

Notebook: `COc1ncc(-c2ccc3ncnc(N4CCC5(CC4)CN(C(=O)/C=C/C(C)=O)C5)c3c2)cc1NS(=O)(=O)c1c(F)cccc1F` , IC50 read as 110

Notebook: `COc1ncc(-c2ccc3ncnc(N4CCN(C(=O)/C=C/C(C)=O)CC4)c3n2)cc1NS(=O)(=O)c1c(F)cccc1F` , IC50 read as 25

Notebook: `CC(=O)/C=C/C(=O)N1CCN(c2ncnc3ccc(-c4cnc(Cl)c(NS(=O)(=O)c5ccc(F)cc5F)c4)cc23)CC1` , IC50 read as 254

Notebook: `COc1ncc(-c2ccc3ncnc(N4CC5CCC(C4)N5C(=O)/C=C/C(C)=O)c3c2)cc1NS(=O)(=O)c1ccc(F)cc1Cl` , IC50 read as 22.8

Notebook: `COc1ncc(-c2ccc3ncnc(C4=CCN(C(=O)/C=C/C(C)=O)CC4)c3n2)cc1NS(=O)(=O)c1ccccc1F` , IC50 read as 79.5

Notebook: `COc1ncc(-c2ccc3ncnc(N4CCN(C(=O)/C=C/C(C)=O)CC4)c3c2)cc1NS(=O)(=O)c1ccc(F)cc1Cl` , IC50 read as 31.7
